The measured values listed here are drawn from patent US9586961B2.

TEST_SYSTEM: JAK3 (Homo sapiens)
Construct: All four purified enzymes contain only the catalytic domain; His (N)
PROTOCOL_DESCRIPTION: JAK3 kinase assay (HTRF, inhibition of phosphorylation of a synthetic peptide)
CONDITION_SET: catalytic domain, His-tag; 2 μM ATP (Km); read-out: JAK3 kinase inhibitory activity (EC50)
pEC50: −log10 of the molar value.
Measured pEC50, listed per entry for reference.

>>> print(df.to_string())
                                   compound  recorded_result
0  CC1CN(c2ncnc3[nH]ccc23)CC2(CC2)CN1C(=O)Cc1ccc(C#N)cc1 (stereo not drawn) [Example 286]           < 6.00

// N#Cc1cccc(CC(=O)N2CCN(c3ncnc4[nH]ccc34)CC3(CC3)C2)c1 [Example 9] : pEC50 value = 6.00 to 7.00

// O=C(c1cncnc1)N1CCN(c2ncnc3[nH]ccc23)CC2(CC2)C1 [Example 160] : pEC50 value = < 6.00

// O=C(c1cscn1)N1CCCN(c2ncnc3[nH]ccc23)CC12CC2 [Example 227] : pEC50 value = 6.00 to 7.00

====

TEST_SYSTEM: JAK1 (Homo sapiens)
Construct: JAK1 (aa 850-1154) and TYK2 (aa 871-1187) are expressed with an N-terminally fused GST-tag; GST (N)
Sequence (P23458 850-1154): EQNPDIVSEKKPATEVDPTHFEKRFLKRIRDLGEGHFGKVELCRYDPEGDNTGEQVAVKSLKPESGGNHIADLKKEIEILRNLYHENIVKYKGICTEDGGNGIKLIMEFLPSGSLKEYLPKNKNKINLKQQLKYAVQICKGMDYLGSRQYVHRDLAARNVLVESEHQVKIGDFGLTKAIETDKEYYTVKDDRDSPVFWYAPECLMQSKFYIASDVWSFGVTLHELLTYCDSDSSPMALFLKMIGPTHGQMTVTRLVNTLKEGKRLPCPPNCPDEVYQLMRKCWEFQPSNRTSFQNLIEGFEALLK
PROTOCOL_DESCRIPTION: JAK1 kinase assay (HTRF, inhibition of phosphorylation of a synthetic peptide)
CONDITION_SET: catalytic domain aa 850-1154, GST-tag; 7 μM ATP (Km); read-out: JAK1 kinase inhibitory activity (EC50)
PROPERTY_LABEL: EC50

                                   molecule  recorded_result
0  N#Cc1c[nH]c(C(=O)N2CCCN(c3ncnc4[nH]ccc34)CC23CC3)c1 [Example 209]         < 100 nM
1  N#Cc1cccc(CCC(=O)N2CCN(c3ncnc4[nH]ccc34)CC3(CC3)C2)c1 [Example 116]   100 to 1000 nM

// O=C(c1c[nH]cn1)N1CCN(c2ncnc3[nH]ccc23)CC2(CC2)C1 [Example 133] : EC50 value = 100 to 1000 nM

====

Measured pEC50, listed per entry for reference.
TEST_SYSTEM: JAK3 (Homo sapiens)
Construct: All four purified enzymes contain only the catalytic domain; His (N)
PROTOCOL_DESCRIPTION: JAK3 kinase assay (HTRF, inhibition of phosphorylation of a synthetic peptide)
CONDITION_SET: catalytic domain, His-tag; 2 μM ATP (Km); read-out: JAK3 kinase inhibitory activity (EC50)
pEC50: −log10 of the molar value.

A selection of reference data follows.
In [3]: df
Out[3]:
                                   compound  property_label  recorded_result
0  NS(=O)(=O)c1ccc2[nH]c(C(=O)N3CCN(c4ncnc5[nH]ccc45)CC4(CC4)C3)cc2c1           pEC50     6.00 to 7.00
1  Cc1cc(C(=O)N2CCCN(c3ncnc4[nH]ccc34)CC23CC3)ccn1           pEC50           < 6.00
2  Cc1oncc1C(=O)N1CCCN(c2ncnc3[nH]ccc23)CC12CC2           pEC50     6.00 to 7.00
3  CCCCC(=O)Nc1nc(N2CCN(Cc3ccccc3)CC3(CC3)C2)c2cc[nH]c2n1           pEC50           < 6.00

// CCC1=NOC(C(=O)N2CCCN(c3ncnc4[nH]ccc34)CC23CC3)C1 (racemic) : pEC50 value = 6.00 to 7.00

// "Cc1nc(CC(=O)N2CCN(c3ncnc4[nH]ccc34)CC3(CC3)C2)cs1" : pEC50 value = < 6.00

// "O=C(c1c[nH]cn1)N1CCN(c2ncnc3[nH]ccc23)CC2(CC2)C1" : pEC50 value = 6.00 to 7.00

// "O=C1CCC(=O)N1CC(=O)N1CCCN(c2ncnc3[nH]ccc23)CC12CC2" : pEC50 value = 6.00 to 7.00

====

TEST_SYSTEM: JAK3 (Homo sapiens, UniProt P52333)
Construct: All four purified enzymes contain only the catalytic domain; His (N)
Sequence (P52333 822-1111 limits assumed): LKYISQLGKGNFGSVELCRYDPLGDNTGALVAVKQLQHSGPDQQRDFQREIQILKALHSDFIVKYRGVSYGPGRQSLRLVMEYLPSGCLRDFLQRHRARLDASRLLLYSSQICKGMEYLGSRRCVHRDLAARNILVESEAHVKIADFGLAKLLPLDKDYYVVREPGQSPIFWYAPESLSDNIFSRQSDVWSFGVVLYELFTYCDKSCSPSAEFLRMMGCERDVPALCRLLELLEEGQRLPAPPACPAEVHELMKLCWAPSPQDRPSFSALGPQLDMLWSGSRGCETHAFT
PROTOCOL_DESCRIPTION: JAK3 kinase assay (HTRF, inhibition of phosphorylation of a synthetic peptide)
CONDITION_SET: catalytic domain, His-tag; 2 μM ATP (Km); read-out: JAK3 kinase inhibitory activity (EC50)
PROPERTY_LABEL: EC50

>>> df
                            molecule_smiles  recorded_result
0  O=C(c1csnn1)N1CCCN(c2ncnc3[nH]ccc23)CC12CC2   100 to 1000 nM
1  O=C(c1cc2ccccc2s1)N1CCN(c2ncnc3[nH]ccc23)CCC12CC2        > 1000 nM
2  Cc1sncc1C(=O)N1CCCN(c2ncnc3[nH]ccc23)CC12CC2   100 to 1000 nM

// "N#Cc1ccc(OCC(=O)N2CCN(c3ncnc4[nH]ccc34)CC3(CC3)C2)cc1" : EC50 value = 100 to 1000 nM

// "N#CCCC(=O)N1CCN(c2ncnc3[nH]ccc23)CC2(CC2)C1" : EC50 value = 100 to 1000 nM

====

TEST_SYSTEM: JAK3 (Homo sapiens, UniProt P52333)
Construct: All four purified enzymes contain only the catalytic domain; His (N)
PROTOCOL_DESCRIPTION: JAK3 kinase assay (HTRF, inhibition of phosphorylation of a synthetic peptide)
CONDITION_SET: catalytic domain, His-tag; 2 μM ATP (Km); read-out: JAK3 kinase inhibitory activity (EC50)
Measured EC50, listed per entry for reference.

A selection of reference data follows.
                            molecule_smiles  recorded_result
0  N#CCOc1ccc(CC(=O)N2CCN(c3ncnc4[nH]ccc34)CC3(CC3)C2)cc1   100 to 1000 nM
1  O=C(Cc1cnc[nH]1)N1CCN(c2ncnc3[nH]ccc23)CC2(CC2)C1   100 to 1000 nM
2  O=C(c1cnsn1)N1CCN(c2ncnc3[nH]ccc23)CC2(CC2)C1   100 to 1000 nM
3  N#Cc1csc(C(=O)N2CCCN(c3ncnc4[nH]ccc34)CC23CC3)c1   100 to 1000 nM
4  O=C(c1ccon1)N1CCCN(c2ncnc3[nH]ccc23)CC12CC2   100 to 1000 nM

// "Cc1cc(CC(=O)N2CCN(c3ncnc4[nH]ccc34)CC3(CC3)C2)no1" : EC50 value = 100 to 1000 nM

// "CNS(=O)(=O)c1csc(C(=O)N2CCN(c3ncnc4[nH]ccc34)CC3(CC3)C2)c1" : EC50 value = 100 to 1000 nM

// "O=C(Cc1nnn[nH]1)N1CCCN(c2ncnc3[nH]ccc23)CC12CC2" : EC50 value = > 1000 nM

// "Cc1ccc(S(=O)(=O)N2CCN(c3ncnc4[nH]ccc34)CC3(CC3)C2)cc1" : EC50 value = > 1000 nM

====

TEST_SYSTEM: JAK3 (Homo sapiens, UniProt P52333)
Construct: All four purified enzymes contain only the catalytic domain; His (N)
PROTOCOL_DESCRIPTION: JAK3 kinase assay (HTRF, inhibition of phosphorylation of a synthetic peptide)
CONDITION_SET: catalytic domain, His-tag; 2 μM ATP (Km); read-out: JAK3 kinase inhibitory activity (EC50)
pEC50: −log10 of the molar value.
Measured pEC50, listed per entry for reference.

>>> df
                                   compound  property_label  recorded_result
0  O=C(c1ccc(S(=O)(=O)NCCc2cccs2)cc1)N1CCN(c2ncnc3[nH]ccc23)CC2(CC2)C1           pEC50     6.00 to 7.00
1         c1nc(N2CCNCC3(CC3)C2)c2cc[nH]c2n1           pEC50           < 6.00
2  O=C(c1ccc(S(=O)(=O)NCC2CCCO2)cc1)N1CCN(c2ncnc3[nH]ccc23)CC2(CC2)C1 (centres unmarked)           pEC50     6.00 to 7.00
3  Cc1cc(C(=O)N2CCN(c3ncnc4[nH]ccc34)CC3(CC3)C2)ccn1           pEC50           < 6.00

Here is another compound to look at.
// "N#Cc1csc(C(=O)N2CCN(c3ncnc4[nH]ccc34)CC3(CC3)C2)c1" : pEC50 value = 6.00 to 7.00

====

TEST_SYSTEM: JAK3 (Homo sapiens)
Construct: All four purified enzymes contain only the catalytic domain; His (N)
PROTOCOL_DESCRIPTION: JAK3 kinase assay (HTRF, inhibition of phosphorylation of a synthetic peptide)
CONDITION_SET: catalytic domain, His-tag; 2 μM ATP (Km); read-out: JAK3 kinase inhibitory activity (EC50)
PROPERTY_LABEL: EC50

>>> print(df.to_string())
                            molecule_smiles          test_system  property_label  recorded_result
0  CN(C)c1ccc(CC(=O)N2CCN(c3ncnc4[nH]ccc34)CC3(CC3)C2)cc1  JAK3 (Homo sapiens)            EC50   100 to 1000 nM
1  N#CCN(CC#N)C(=O)N1CCN(c2ncnc3[nH]ccc23)CC2(CC2)C1  JAK3 (Homo sapiens)            EC50   100 to 1000 nM
2  Cc1ccncc1C(=O)N1CCCN(c2ncnc3[nH]ccc23)CC12CC2  JAK3 (Homo sapiens)            EC50        > 1000 nM

// "CNS(=O)(=O)c1ccc(C(=O)N2CCN(c3ncnc4[nH]ccc34)CC3(CC3)C2)cc1" : EC50 value = 100 to 1000 nM

// "Cc1cnc(C(=O)N2CCN(c3ncnc4[nH]ccc34)CC3(CC3)C2)cn1" : EC50 value = > 1000 nM

// "Cc1cc(C(=O)N2CCN(c3ncnc4[nH]ccc34)CC3(CC3)C2)sn1" : EC50 value = > 1000 nM
